molecular target: Recombinant G2019S-LRRK2 protein (Homo sapiens (Human), UniProt Q5S007, G2019S); assay: LRRK2 kinase activity, LanthaScreen TR-FRET assay (G2019S); conditions: LRRKtide 400 nM, 25 μM ATP, 60 min
Sequence (Q5S007 whole entry G2019S): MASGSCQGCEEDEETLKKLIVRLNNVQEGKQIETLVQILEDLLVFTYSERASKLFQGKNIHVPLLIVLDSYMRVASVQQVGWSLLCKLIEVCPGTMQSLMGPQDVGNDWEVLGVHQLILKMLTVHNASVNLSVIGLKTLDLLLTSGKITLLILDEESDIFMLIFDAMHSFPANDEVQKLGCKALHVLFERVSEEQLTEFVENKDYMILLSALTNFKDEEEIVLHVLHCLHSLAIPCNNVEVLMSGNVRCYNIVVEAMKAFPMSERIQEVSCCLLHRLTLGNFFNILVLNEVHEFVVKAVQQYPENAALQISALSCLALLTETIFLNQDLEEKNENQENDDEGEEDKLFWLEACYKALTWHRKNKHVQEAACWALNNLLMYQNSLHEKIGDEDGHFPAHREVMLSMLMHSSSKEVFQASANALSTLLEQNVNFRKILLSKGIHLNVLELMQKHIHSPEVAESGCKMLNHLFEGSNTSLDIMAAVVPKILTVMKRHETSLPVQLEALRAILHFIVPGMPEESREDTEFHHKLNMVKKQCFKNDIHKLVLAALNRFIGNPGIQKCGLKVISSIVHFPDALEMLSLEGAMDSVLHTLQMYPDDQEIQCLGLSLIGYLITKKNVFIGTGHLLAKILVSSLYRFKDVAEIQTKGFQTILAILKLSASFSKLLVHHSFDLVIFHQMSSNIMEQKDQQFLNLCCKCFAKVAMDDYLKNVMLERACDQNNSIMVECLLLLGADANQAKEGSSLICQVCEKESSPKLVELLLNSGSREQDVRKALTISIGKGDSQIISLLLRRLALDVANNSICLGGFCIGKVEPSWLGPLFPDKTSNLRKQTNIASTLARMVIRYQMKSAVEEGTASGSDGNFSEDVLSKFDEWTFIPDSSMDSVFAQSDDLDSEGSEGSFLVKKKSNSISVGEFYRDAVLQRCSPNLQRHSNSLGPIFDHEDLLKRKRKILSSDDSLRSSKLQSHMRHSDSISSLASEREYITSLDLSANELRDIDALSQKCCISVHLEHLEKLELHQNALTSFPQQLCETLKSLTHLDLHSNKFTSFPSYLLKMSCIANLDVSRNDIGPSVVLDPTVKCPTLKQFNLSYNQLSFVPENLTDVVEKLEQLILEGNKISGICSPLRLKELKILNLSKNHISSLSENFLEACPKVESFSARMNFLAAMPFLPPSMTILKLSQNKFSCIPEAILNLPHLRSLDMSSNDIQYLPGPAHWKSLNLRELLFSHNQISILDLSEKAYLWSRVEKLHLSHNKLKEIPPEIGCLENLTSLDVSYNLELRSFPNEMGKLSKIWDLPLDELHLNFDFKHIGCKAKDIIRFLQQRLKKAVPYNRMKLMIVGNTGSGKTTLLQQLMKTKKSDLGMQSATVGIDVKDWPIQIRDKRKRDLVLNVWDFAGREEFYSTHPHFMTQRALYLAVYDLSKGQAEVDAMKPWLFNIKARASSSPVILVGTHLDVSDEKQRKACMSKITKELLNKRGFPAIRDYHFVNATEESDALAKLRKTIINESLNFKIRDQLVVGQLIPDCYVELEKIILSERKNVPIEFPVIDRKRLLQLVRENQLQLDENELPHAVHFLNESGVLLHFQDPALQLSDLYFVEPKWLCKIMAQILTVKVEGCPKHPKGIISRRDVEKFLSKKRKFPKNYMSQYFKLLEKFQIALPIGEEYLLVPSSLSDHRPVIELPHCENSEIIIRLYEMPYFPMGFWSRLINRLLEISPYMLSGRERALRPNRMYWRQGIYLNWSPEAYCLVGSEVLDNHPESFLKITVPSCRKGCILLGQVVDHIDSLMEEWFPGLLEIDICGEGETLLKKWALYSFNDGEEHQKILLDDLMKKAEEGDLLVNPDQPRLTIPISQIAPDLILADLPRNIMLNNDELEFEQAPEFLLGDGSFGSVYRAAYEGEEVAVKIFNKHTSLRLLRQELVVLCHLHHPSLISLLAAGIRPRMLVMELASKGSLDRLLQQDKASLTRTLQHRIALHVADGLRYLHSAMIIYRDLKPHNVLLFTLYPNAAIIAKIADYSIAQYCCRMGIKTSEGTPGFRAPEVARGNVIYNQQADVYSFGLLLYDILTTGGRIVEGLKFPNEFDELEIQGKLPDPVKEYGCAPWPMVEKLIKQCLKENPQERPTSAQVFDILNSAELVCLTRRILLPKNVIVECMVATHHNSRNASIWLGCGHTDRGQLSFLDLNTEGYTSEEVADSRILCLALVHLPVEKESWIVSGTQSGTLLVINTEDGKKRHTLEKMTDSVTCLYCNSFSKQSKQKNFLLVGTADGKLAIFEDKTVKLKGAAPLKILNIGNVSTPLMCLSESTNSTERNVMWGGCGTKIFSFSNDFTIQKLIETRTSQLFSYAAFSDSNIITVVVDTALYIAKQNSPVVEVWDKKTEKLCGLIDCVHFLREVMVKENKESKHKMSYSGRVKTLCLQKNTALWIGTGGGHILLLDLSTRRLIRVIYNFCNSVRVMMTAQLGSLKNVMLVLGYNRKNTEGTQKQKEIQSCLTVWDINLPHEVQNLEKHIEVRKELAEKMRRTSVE
Reported IC50 is given for each of the following compounds.
PROPERTY_LABEL: IC50

INSERT INTO measurements (line_notation, measured_target, property_label, result) VALUES
  ('COc1c(C#N)ccc(C)c1C(=O)Nc1ccc2[nH]nc(C)c2c1', 'Recombinant G2019S-LRRK2 protein (Homo sapiens (Human), UniProt Q5S007, G2019S)', 'IC50', '< 0.1 µM'),
  ('Cc1cc(C#N)cnc1C(=O)Nc1ccc2[nH]nc(-c3ccnc(Br)c3)c2c1', 'Recombinant G2019S-LRRK2 protein (Homo sapiens (Human), UniProt Q5S007, G2019S)', 'IC50', '< 0.1 µM'),
  ('N#Cc1cccc(C(=O)Nc2ccc3[nH]nc(-c4cnn(C(F)F)c4)c3c2)c1F', 'Recombinant G2019S-LRRK2 protein (Homo sapiens (Human), UniProt Q5S007, G2019S)', 'IC50', '< 0.1 µM'),
  ('COc1nc(C(=O)Nc2ccc3[nH]nc(Cl)c3c2)c(C)c(C)c1C#N', 'Recombinant G2019S-LRRK2 protein (Homo sapiens (Human), UniProt Q5S007, G2019S)', 'IC50', '< 0.1 µM'),
  ('CCOc1cc(-c2n[nH]c3ccc(NC(=O)c4ncc(C#N)c(C)c4C)cc23)ccn1', 'Recombinant G2019S-LRRK2 protein (Homo sapiens (Human), UniProt Q5S007, G2019S)', 'IC50', '< 0.1 µM'),
  ('Cc1c(C(=O)Nc2ccc3[nH]nc(-c4cnco4)c3c2)ncc(C#N)c1C(F)(F)F', 'Recombinant G2019S-LRRK2 protein (Homo sapiens (Human), UniProt Q5S007, G2019S)', 'IC50', '< 0.1 µM'),
  ('Cc1c(C#N)nn(C)c1C(=O)Nc1ccc2[nH]nc(-c3cnn(C(F)F)c3)c2c1', 'Recombinant G2019S-LRRK2 protein (Homo sapiens (Human), UniProt Q5S007, G2019S)', 'IC50', '< 0.1 µM'),
  ('COc1ccc(-c2n[nH]c3ccc(NC(=O)c4ncc(C#N)cc4C)cc23)cn1', 'Recombinant G2019S-LRRK2 protein (Homo sapiens (Human), UniProt Q5S007, G2019S)', 'IC50', '< 0.1 µM'),
  ('C=C(C)c1n[nH]c2ccc(NC(=O)c3ncc(C#N)c(C)c3C)cc12', 'Recombinant G2019S-LRRK2 protein (Homo sapiens (Human), UniProt Q5S007, G2019S)', 'IC50', '< 0.1 µM'),
  ('N#Cc1ccnc(C(=O)Nc2ccc3[nH]nc(-c4ccoc4)c3c2)n1', 'Recombinant G2019S-LRRK2 protein (Homo sapiens (Human), UniProt Q5S007, G2019S)', 'IC50', '< 0.1 µM'),
  ('Cc1cc(C#N)cnc1C(=O)Nc1cc(C)c2[nH]nc(-c3ccoc3)c2c1', 'Recombinant G2019S-LRRK2 protein (Homo sapiens (Human), UniProt Q5S007, G2019S)', 'IC50', '0.1 to 1 µM'),
  ('N#Cc1ncc(C(=O)Nc2ccc3[nH]nc(-c4ccncc4)c3c2)cn1', 'Recombinant G2019S-LRRK2 protein (Homo sapiens (Human), UniProt Q5S007, G2019S)', 'IC50', '0.1 to 1 µM'),
  ('Cc1c(C#N)cnc(C(=O)Nc2cc3c(-c4cnco4)n[nH]c3cn2)c1C', 'Recombinant G2019S-LRRK2 protein (Homo sapiens (Human), UniProt Q5S007, G2019S)', 'IC50', '< 0.1 µM'),
  ('Cc1c(C#N)cnc(C(=O)Nc2ccc3[nH]nc(-c4cncc(Cl)c4)c3c2)c1C', 'Recombinant G2019S-LRRK2 protein (Homo sapiens (Human), UniProt Q5S007, G2019S)', 'IC50', '< 0.1 µM'),
  ('Cc1cc(C#N)cnc1C(=O)Nc1ccc2[nH]nc(-c3cncs3)c2c1', 'Recombinant G2019S-LRRK2 protein (Homo sapiens (Human), UniProt Q5S007, G2019S)', 'IC50', '< 0.1 µM'),
  ('Cc1cc(C#N)cnc1C(=O)Nc1ccc2[nH]nc(-n3ccoc3=O)c2c1', 'Recombinant G2019S-LRRK2 protein (Homo sapiens (Human), UniProt Q5S007, G2019S)', 'IC50', '< 0.1 µM'),
  ('Cc1c(C#N)cnc(C(=O)Nc2cc(F)c3[nH]ncc3c2)c1C', 'Recombinant G2019S-LRRK2 protein (Homo sapiens (Human), UniProt Q5S007, G2019S)', 'IC50', '0.1 to 1 µM'),
  ('N#Cc1ccc(C(=O)Nc2ccc3[nH]nc(-c4ccoc4)c3c2)c(I)c1', 'Recombinant G2019S-LRRK2 protein (Homo sapiens (Human), UniProt Q5S007, G2019S)', 'IC50', '< 0.1 µM'),
  ('N#Cc1cnc(C(=O)Nc2ccc3[nH]nc(-c4cnco4)c3c2)c(C2CC2)c1', 'Recombinant G2019S-LRRK2 protein (Homo sapiens (Human), UniProt Q5S007, G2019S)', 'IC50', '< 0.1 µM'),
  ('Cc1nc(C#N)cnc1C(=O)Nc1ccc2[nH]nc(-c3ccoc3)c2c1', 'Recombinant G2019S-LRRK2 protein (Homo sapiens (Human), UniProt Q5S007, G2019S)', 'IC50', '< 0.1 µM'),
  ('N#Cc1ccc(F)c(C(=O)Nc2ccc3[nH]nc(-c4ccoc4)c3c2)c1F', 'Recombinant G2019S-LRRK2 protein (Homo sapiens (Human), UniProt Q5S007, G2019S)', 'IC50', '< 0.1 µM'),
  ('Cc1c(C#N)cnc(C(=O)Nc2ccc3[nH]nc(-c4cncs4)c3c2)c1C', 'Recombinant G2019S-LRRK2 protein (Homo sapiens (Human), UniProt Q5S007, G2019S)', 'IC50', '< 0.1 µM'),
  ('Cc1c(C#N)cnc(C(=O)Nc2ccc3[nH]nc(-c4ccn(C(F)F)n4)c3c2)c1C', 'Recombinant G2019S-LRRK2 protein (Homo sapiens (Human), UniProt Q5S007, G2019S)', 'IC50', '< 0.1 µM'),
  ('Cc1cc(C#N)cnc1C(=O)Nc1ccc2[nH]nc(-c3cnco3)c2c1', 'Recombinant G2019S-LRRK2 protein (Homo sapiens (Human), UniProt Q5S007, G2019S)', 'IC50', '< 0.1 µM'),
  ('Cc1ccc(C#N)c(C)c1C(=O)Nc1ccc2[nH]nc(-c3cnn(C(F)F)c3)c2c1', 'Recombinant G2019S-LRRK2 protein (Homo sapiens (Human), UniProt Q5S007, G2019S)', 'IC50', '< 0.1 µM'),
  ('Cc1c(C(=O)Nc2ccc3[nH]nc(-c4ccoc4)c3c2)c(C#N)nn1C', 'Recombinant G2019S-LRRK2 protein (Homo sapiens (Human), UniProt Q5S007, G2019S)', 'IC50', '< 0.1 µM'),
  ('CCc1c(C#N)cccc1C(=O)Nc1ccc2[nH]nc(-c3ccoc3)c2c1', 'Recombinant G2019S-LRRK2 protein (Homo sapiens (Human), UniProt Q5S007, G2019S)', 'IC50', '< 0.1 µM'),
  ('COc1c(C#N)ccnc1C(=O)Nc1ccc2[nH]nc(-c3cnoc3)c2c1', 'Recombinant G2019S-LRRK2 protein (Homo sapiens (Human), UniProt Q5S007, G2019S)', 'IC50', '< 0.1 µM'),
  ('Cc1c(C#N)cnc(C(=O)Nc2ccc3[nH]nc(-c4ccn(C)c4)c3c2)c1C', 'Recombinant G2019S-LRRK2 protein (Homo sapiens (Human), UniProt Q5S007, G2019S)', 'IC50', '< 0.1 µM'),
  ('Cc1ncc(C#N)nc1C(=O)Nc1ccc2[nH]nc(-c3ccoc3)c2c1', 'Recombinant G2019S-LRRK2 protein (Homo sapiens (Human), UniProt Q5S007, G2019S)', 'IC50', '< 0.1 µM'),
  ('Cn1cc(C#N)nc1C(=O)Nc1ccc2[nH]nc(-c3ccoc3)c2c1', 'Recombinant G2019S-LRRK2 protein (Homo sapiens (Human), UniProt Q5S007, G2019S)', 'IC50', '< 0.1 µM'),
  ('Cc1ccc(-c2n[nH]c3ccc(NC(=O)c4ncc(C#N)cc4C)cc23)cn1', 'Recombinant G2019S-LRRK2 protein (Homo sapiens (Human), UniProt Q5S007, G2019S)', 'IC50', '< 0.1 µM'),
  ('Cc1cc(C#N)cnc1C(=O)Nc1ccc2[nH]nc(-c3cccc(N(C)C)c3)c2c1', 'Recombinant G2019S-LRRK2 protein (Homo sapiens (Human), UniProt Q5S007, G2019S)', 'IC50', '< 0.1 µM'),
  ('Cc1c(C#N)cnc(C(=O)Nc2ccc3[nH]nc(C4(C)CC4)c3c2)c1C', 'Recombinant G2019S-LRRK2 protein (Homo sapiens (Human), UniProt Q5S007, G2019S)', 'IC50', '0.1 to 1 µM'),
  ('CC(C)c1cc(C#N)cnc1C(=O)Nc1ccc2[nH]nc(-c3cnco3)c2c1', 'Recombinant G2019S-LRRK2 protein (Homo sapiens (Human), UniProt Q5S007, G2019S)', 'IC50', '< 0.1 µM');
